Molecular target: Akt3 (Homo sapiens, UniProt Q9Y243)
Sequence (Q9Y243 whole entry): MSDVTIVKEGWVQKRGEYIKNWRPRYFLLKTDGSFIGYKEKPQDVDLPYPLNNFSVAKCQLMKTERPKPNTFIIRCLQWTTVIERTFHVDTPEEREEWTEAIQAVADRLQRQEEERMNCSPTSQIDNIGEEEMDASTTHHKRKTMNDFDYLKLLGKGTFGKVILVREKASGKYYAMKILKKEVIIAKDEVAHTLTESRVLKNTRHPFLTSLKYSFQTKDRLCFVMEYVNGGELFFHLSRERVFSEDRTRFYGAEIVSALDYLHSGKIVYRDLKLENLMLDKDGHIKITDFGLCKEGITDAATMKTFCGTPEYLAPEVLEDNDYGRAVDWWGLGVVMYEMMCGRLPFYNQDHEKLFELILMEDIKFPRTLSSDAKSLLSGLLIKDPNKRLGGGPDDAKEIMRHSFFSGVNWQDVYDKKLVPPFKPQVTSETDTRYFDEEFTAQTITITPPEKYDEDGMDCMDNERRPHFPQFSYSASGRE
ENDPOINT LABEL: pKi
Friendly reminder that pKi comes from taking -log10 of the concentration in mol/L.

{"STRUCTURE SMILES STRING": "Cc1ccc(CN2CCC[C@@H](Nc3ccc4[nH]ncc4c3)C2)cc1NS(=O)(=O)N(C)C", "ENDPOINT LABEL": "pKi", "REPORTED": 6.06}

Field: next compound
Ask: May I ask what pKi has been recorded for `Cc1ccc(CN2CCC[C@H](Nc3ccc4[nH]ncc4c3)C2)cc1NS(=O)(=O)N(C)C` ?
Reply: 5.10

* * *

Experiment: Rat oral pharmacokinetics (plasma)
Type: in vivo
Settings: rat oral PK, mean n = 3 rats, 20-30 μmmol/kg
ENDPOINT LABEL: Vz_F

{"COMPOUND": "OCCOc1cccc(CN2CCC[C@@H](Nc3ccc4[nH]ncc4c3)C2)c1 [Compound 1.092]", "REPORTED": "19.0 L/kg"}
{"COMPOUND": "CSc1ccc(CN2CC[C@@H](Nc3cccc4cnccc34)C2)cc1 [Compound 2.026]", "REPORTED": "BLQ"}
{"COMPOUND": "CCc1ccc(CN2CCC[C@@H](Nc3ccc4[nH]ncc4c3)C2)cc1 [Compound 1.136]", "REPORTED": "BLQ"}
{"COMPOUND": "CS(=O)(=O)Nc1cccc(CN2CCC[C@H](Nc3ccc4[nH]ncc4c3)C2)c1 [Compound 1.091]", "REPORTED": "BLQ"}

* * *

Target: ROCK2 (Homo sapiens)
Construct: purchased Upstate/Chemicon 14-451
Sequence (O75116 11-552 limits assumed): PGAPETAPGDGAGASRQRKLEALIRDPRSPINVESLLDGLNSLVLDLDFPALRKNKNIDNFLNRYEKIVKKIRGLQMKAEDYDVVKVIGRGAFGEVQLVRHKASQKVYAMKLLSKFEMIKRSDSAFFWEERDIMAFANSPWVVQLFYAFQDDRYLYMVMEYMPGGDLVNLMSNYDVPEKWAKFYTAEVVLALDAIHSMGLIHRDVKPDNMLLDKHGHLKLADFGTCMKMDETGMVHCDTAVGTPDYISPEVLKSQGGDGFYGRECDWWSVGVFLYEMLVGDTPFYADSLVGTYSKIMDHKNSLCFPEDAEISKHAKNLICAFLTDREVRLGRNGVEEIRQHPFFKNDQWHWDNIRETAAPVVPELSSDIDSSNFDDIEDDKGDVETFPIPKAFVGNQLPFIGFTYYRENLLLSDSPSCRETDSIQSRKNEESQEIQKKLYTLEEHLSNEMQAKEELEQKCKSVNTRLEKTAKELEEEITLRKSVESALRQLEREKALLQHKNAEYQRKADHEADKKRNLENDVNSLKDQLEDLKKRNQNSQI
Assay: Rho kinase inhibition assay (IMAP), ROCK2
Assay type: biochemical
Conditions: IMAP assay, 10 μM ATP; average; read-out: ROCK2 Ki, Avg
Reported Ki values for a set of molecules
# value in nM; strip the unit string

{"MOLECULE": "Cc1ccc(CN2CCC[C@H](Nc3ccc4[nH]ncc4c3)C2)cc1NS(=O)(=O)N(C)C [Compound 1.237]", "Ki (nM)": 4}

Field: next molecule
Ask: May I ask what Ki has been recorded for Cc1ccc(CN2CCC[C@@H](Nc3ccc4[nH]ncc4c3)C2)cc1NS(=O)(=O)N(C)C [Compound 1.262] ?
Reply: 4
